Recorded values, source patent US20130123494A1.

- assay-notes: Lightfastness test of thin films
- Assay type: physicochemical
- condition-set: thin film on glass plate, UV fluorescent lamps 15 W/m^2, 45° C., 10 hours
property-name: I^a/I^a0 (absorbance ratio at absorption maximum after/before lightfastness test)
Note: the reply should be a number with no unit written.

Completed entries (count: 2):
// query State, in one line, measured I^a/I^a0 (absorbance ratio at absorption maximum after/before lightfastness test) of CCCCn1c([O-])c(/C=N/[N-]c2nnnn2-c2ccccc2)c(C)c(C#N)c1=O.CCCCn1c([O-])c(/C=N/[N-]c2nnnn2-c2ccccc2)c(C)c(C#N)c1=O.CCCCn1c([O-])c(/C=N/[N-]c2nnnn2-c2ccccc2)c(C)c(C#N)c1=O.CCCCn1c([O-])c(/C=N/[N-]c2nnnn2-c2ccccc2)c(C)c(C#N)c1=O.Fc1cccc(-[n+]2ccc(-c3cc[n+](-c4cccc(F)c4)cc3)cc2)c1.[Co+3].[Co+3]
// result 0.92

// query State, in one line, measured I^a/I^a0 (absorbance ratio at absorption maximum after/before lightfastness test) of CCn1c([O-])c(/C=N/[N-]c2ncccn2)c(C)c(C#N)c1=O.CCn1c([O-])c(/C=N/[N-]c2ncccn2)c(C)c(C#N)c1=O.CCn1c([O-])c(/C=N/[N-]c2ncccn2)c(C)c(C#N)c1=O.CCn1c([O-])c(/C=N/[N-]c2ncccn2)c(C)c(C#N)c1=O.Oc1ccc(-c2ccccc2)cc1-[n+]1ccc(-c2cc[n+](-c3cc(-c4ccccc4)ccc3O)cc2)cc1.[Co+3].[Co+3]
// result 0.99

Continue with the molecule presented below.
// query State, in one line, measured I^a/I^a0 (absorbance ratio at absorption maximum after/before lightfastness test) of Cc1c(/C=N/[N-]c2nnnn2-c2ccccc2)c([O-])n(Cc2ccccc2)c(=O)c1C#N.Cc1c(/C=N/[N-]c2nnnn2-c2ccccc2)c([O-])n(Cc2ccccc2)c(=O)c1C#N.Cc1c(/C=N/[N-]c2nnnn2-c2ccccc2)c([O-])n(Cc2ccccc2)c(=O)c1C#N.Cc1c(/C=N/[N-]c2nnnn2-c2ccccc2)c([O-])n(Cc2ccccc2)c(=O)c1C#N.[Co+3].[Co+3].c1ccc(CC[N+]23CC[N+](CCc4ccccc4)(CC2)CC3)cc1
// result 0.85
